For each record, write down the corresponding % visual injury (Obs).
# Test system: common rice (ORYSA)
# condition: in vivo
Just the number please, in %, no unit attached.

Task: # query: % visual injury (Obs) of entry CCCCC(CC)COC(=O)COc1ccc(Cl)cc1Cl (stereo not shown) [2,4-D EHE, reference compound]
Output: 0

Task: Please do the same for Nc1c(F)c(-c2ccc3cc[nH]c3c2F)nc(C(=O)O)c1Cl as well.
Output: 0

Task: Same thing, different compound: CC(Oc1ccc(Cl)cc1Cl)C(=O)O (stereo not shown) [Dichlorprop-P, dichlorprop-P, reference compound]
Output: 0

Task: And for COc1c(Cl)ccc(Cl)c1C(=O)O [Dicamba-DMA, dicamba-dimethylammonium, reference compound] ?
Output: 0

###

# System: poinsettia (Euphorbia heterophylla, EPHHL)
# assay remarks: Greenhouse postemergence trial, % visual injury
# condition: Euphorbia heterophylla, post-emergence, read-out: % visual injury Obs, 5 g ae/ha alone; 20-22 d
Tag: TRUE if measured pest or weed control at 5 g/ha is not below 70%, FALSE if it is.

Task: Is reported pest or weed control at 5 g/ha greater than or equal to 70% here: C=C(F)c1c(C(=O)O)nc(-c2ccc3cc[nH]c3c2F)c(F)c1N
Output: TRUE

Task: And what about the compound COC(=O)c1nc(-c2ccc3ccoc3c2F)nc(N)c1OC ?
Output: FALSE

Task: Ok, now COC(=O)c1nc(-c2ccc3cc[nH]c3c2F)c(F)c(/N=C/N(C)C)c1Cl
Output: TRUE

Task: Note, next up: COc1c(N)nc(-c2ccc3sccc3c2)nc1C(=O)O
Output: FALSE

Task: Now the same for Nc1c(F)c(-c2cc(F)c3[nH]ccc3c2)nc(C(=O)O)c1Cl
Output: FALSE

Task: Please answer likewise for COC(=O)c1nc(-c2ccc3scnc3c2)c(F)c(N)c1Cl
Output: TRUE

Task: Can you handle Nc1c(F)c(-c2ccc3ccoc3c2)nc(C(=O)O)c1Cl next?
Output: TRUE

Task: Same lookup for COC(=O)c1nc(-c2ccc3sccc3c2)c(F)c(N)c1Cl , please.
Output: FALSE

###

# Test system: wild pansy (Viola tricolor, VIOTR)
# assay remarks: Greenhouse postemergence trial, % visual injury
# condition: Viola tricolor, post-emergence, read-out: % visual injury Obs
Assign class by pest or weed control at 5 g/ha: not lower than 20% means met; lower than 20% means not met.

Task: Does pest or weed control at 5 g/ha meet or surpass 20% for COC(=O)c1nc(-c2ccc3cc[nH]c3c2F)c(F)c(/N=C/N(C)C)c1Cl ?
Output: met

Task: Now the same for Nc1c(F)c(-c2ccc3cc[nH]c3c2F)nc(C(=O)O)c1Cl
Output: met

Task: Another compound to check: COC(=O)c1nc(-c2ccc3sccc3c2)c(F)c(N)c1Cl
Output: not met

Task: Try COC(=O)c1nc(-c2ccc3ccoc3c2F)nc(N)c1OC next.
Output: not met

Task: Query Nc1c(F)c(-c2cc(F)c3[nH]ccc3c2)nc(C(=O)O)c1Cl next
Output: not met

Task: What do you get for COc1c(N)nc(-c2ccc3sccc3c2)nc1C(=O)O ?
Output: not met

Task: Another compound to look at: C=C(F)c1c(C(=O)O)nc(-c2ccc3cc[nH]c3c2F)c(F)c1N
Output: met

Task: // repeat for Nc1c(F)c(-c2ccc3ccoc3c2)nc(C(=O)O)c1Cl and report
Output: met

Task: How about this compound: COC(=O)c1nc(-c2ccc3scnc3c2)c(F)c(N)c1Cl
Output: not met
